Values compiled from ChEMBL document CHEMBL1145829.

Measured pIC50, listed per entry.
Target: Estrogen receptor beta (Homo sapiens)
Sequence (Q92731 whole entry): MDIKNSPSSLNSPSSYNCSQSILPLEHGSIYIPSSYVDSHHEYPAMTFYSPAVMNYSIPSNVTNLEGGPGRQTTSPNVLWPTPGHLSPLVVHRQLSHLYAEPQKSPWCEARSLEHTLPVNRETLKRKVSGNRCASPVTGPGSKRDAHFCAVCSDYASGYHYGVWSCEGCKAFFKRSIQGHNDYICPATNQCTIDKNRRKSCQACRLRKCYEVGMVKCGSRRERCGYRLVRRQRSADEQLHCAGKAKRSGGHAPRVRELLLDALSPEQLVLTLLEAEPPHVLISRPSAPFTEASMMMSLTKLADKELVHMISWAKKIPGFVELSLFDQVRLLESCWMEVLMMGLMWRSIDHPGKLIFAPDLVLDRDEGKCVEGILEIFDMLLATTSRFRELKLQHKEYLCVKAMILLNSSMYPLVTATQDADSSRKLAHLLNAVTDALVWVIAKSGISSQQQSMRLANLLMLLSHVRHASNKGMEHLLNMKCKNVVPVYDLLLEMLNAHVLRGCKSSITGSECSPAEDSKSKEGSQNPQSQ
A value of pIC50 is the negative decimal logarithm of a concentration given in moles per litre.

> print(dat)
                                   compound  result.type  number
1  CC1(c2ccc(OCCN3CCCC3)cc2)c2ccc(O)cc2CCN1c1cccc(F)c1 (stereo not given)        pIC50    6.91

Fill in: pIC50 on Estrogen receptor beta (Homo sapiens), entry CC1(c2ccc(OCCN3CCCCC3)cc2)c2ccc(O)cc2CCN1c1ccc(Cl)cc1 (stereo not given)
6.40

Give pIC50 for this entry on Estrogen receptor beta (Homo sapiens): CC1(c2ccc(OCCN3CCCC3)cc2)c2ccc(O)cc2CCN1c1cccc(O)c1 (stereo not given)
6.72
